The reader will find reported EC50 values listed item by item below.
# assayed.system: human Kv7.2 (Homo sapiens)
# Sequence (O43526 whole entry): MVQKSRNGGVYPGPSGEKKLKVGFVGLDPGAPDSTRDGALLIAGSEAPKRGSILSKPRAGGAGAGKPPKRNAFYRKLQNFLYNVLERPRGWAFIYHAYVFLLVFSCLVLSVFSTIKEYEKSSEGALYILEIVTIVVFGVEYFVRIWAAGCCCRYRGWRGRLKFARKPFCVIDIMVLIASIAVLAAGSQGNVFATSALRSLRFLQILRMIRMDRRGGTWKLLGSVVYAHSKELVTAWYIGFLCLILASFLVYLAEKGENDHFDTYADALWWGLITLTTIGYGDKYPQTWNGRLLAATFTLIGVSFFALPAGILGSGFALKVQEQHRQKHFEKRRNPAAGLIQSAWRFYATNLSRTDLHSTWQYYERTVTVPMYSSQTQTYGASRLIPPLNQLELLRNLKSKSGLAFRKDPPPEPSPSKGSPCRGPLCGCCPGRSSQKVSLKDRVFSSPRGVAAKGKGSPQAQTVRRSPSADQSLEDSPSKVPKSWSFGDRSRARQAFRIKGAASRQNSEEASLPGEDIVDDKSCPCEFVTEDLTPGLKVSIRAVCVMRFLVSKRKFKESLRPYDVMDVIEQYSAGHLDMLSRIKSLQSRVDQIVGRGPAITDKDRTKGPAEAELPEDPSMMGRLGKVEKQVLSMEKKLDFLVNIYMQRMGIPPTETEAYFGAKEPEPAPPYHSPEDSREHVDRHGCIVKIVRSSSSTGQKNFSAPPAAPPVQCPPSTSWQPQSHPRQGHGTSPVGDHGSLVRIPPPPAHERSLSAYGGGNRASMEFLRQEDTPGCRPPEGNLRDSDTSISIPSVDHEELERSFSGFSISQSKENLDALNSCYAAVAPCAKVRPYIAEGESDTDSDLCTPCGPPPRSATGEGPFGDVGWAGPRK
# procedure.text: activation (potentiation) of Kv7.2 current, SyncroPatch 384 electrophysiology in CHO cells stably expressing human Kv7.2
# condition: human Kv7.2 in CHO cells; in presence of 5.6 μM zinc pyrithione; % activation relative to 30 μM ML-213
# number only, unit nM dropped from output

Known results for compounds:
CC(C)(C)CNC(=O)NCC1(c2cccc(Cl)c2)CCO1 (stereo not drawn): 1050
N#Cc1cccc([C@]2(CNC(=O)C3CCC4(CCC4)C3)CCO2)c1 (stereo partly drawn): 3010
COC(C)(CNC(=O)CCC1CCCC1)c1cccc(Cl)c1 (stereo not drawn): 890
COC(C)(CNC(=O)Nc1cccc(C)c1)c1cccc(Cl)c1 (stereo not drawn): 2410
O=C(NCC1(c2cccc(Cl)c2)CC1)NC1COC2(CCCC2)C1 (stereo not drawn): 2920
O=C(NCC(CCO)c1cccc(Cl)c1)[C@H]1C[C@@H]1c1ccccc1 (stereo partly drawn): 1810
N#Cc1cccc([C@]2(CNC(=O)C3CC4(C3)CC43CCC3)CCO2)c1 (stereo partly drawn): 910
O=C(NCC1CCCC1)NCC1(c2cccc(Cl)c2)CCO1 (stereo not drawn): 320

Please fill in: EC50 reported for CO[C@@](C)(CNC(=O)C1CC12CCCCC2)c1cccc(Cl)c1 (stereo partly drawn) = 290

Summary for this compound, COC(C)(CNC(=O)NCc1ccco1)c1cccc(Cl)c1 (stereo not drawn) : EC50 is 2460

Short answer for O=C(NCC1(c2cccc(Cl)n2)CCO1)[C@H]1C[C@@H]1c1ccccc1 (stereo partly drawn) : EC50 was 1740

Record summary for COC(C)(CNC(=O)NC1CCCC1)c1cccc(Cl)c1 (stereo not drawn) : reported EC50 = 2340

According to the records, this compound O=C(CC1CCCCC1)NCC1(c2cccc(Cl)c2)CCO1 (stereo not drawn) displays EC50 of 430

Measured EC50 of COC(C)(CNC(=O)NCc1cccs1)c1cccc(Cl)c1 (stereo not drawn) : 1860

N#Cc1cccc(C2(CNC(=O)[C@H]3C[C@@H]3c3ccccc3)OCC2(F)F)c1 (stereo partly drawn) has a reported EC50 of 60

// EC50 lookup, compound = CO[C@@](C)(CNC(=O)[C@H]1C[C@@H]1c1ccccc1)c1cccc(Cl)c1 , result: 60

EC50 for N#CCOC(CNC(=O)CC1CCCC1)c1cccc(Cl)c1 (stereo not drawn) is 2000

Item: COC(C)(CNC(=O)CC1CCCCC1)c1cccc(Cl)c1 (stereo not drawn) | EC50: 620

The value of EC50 measured for the compound N#Cc1cccc([C@]2(CNC(=O)[C@H]3C[C@@H]3C(F)(F)F)CCO2)c1 turned out to be 2550

Record summary for O=C(CC1(C(F)(F)F)CC1)NCC1(c2cccc(OC(F)F)n2)CCO1 (stereo not drawn) : reported EC50 = 8240

Lab note: O=C(CC1CCCCC1)N[C@H]1C[C@H](c2cccc(Cl)c2)C1 gave EC50 of 3190

Just so you know, measured EC50 for COC(CNC(=O)Cc1cccc2ccccc12)c1ccccc1Cl (stereo not drawn) came out at 1580

// field: EC50; key: O=C(NCC(OC1CCC1)c1cccc(Cl)c1)NC1C[C@H]2CC[C@@H]1C2 (mixture of isomers) ; value = 3350

Briefly, EC50 measured for O=C(NC[C@]1(c2cccc(Cl)c2)CCO1)[C@H]1C[C@@H]1c1ccccc1 : 730

Given item N#Cc1cccc([C@]2(CNC(=O)C3CC3C3CCC(F)(F)CC3)CCO2)c1 (stereo partly drawn) , the value recorded as its EC50 is 400

Record summary for N#Cc1cccc([C@]2(CNC(=O)CC3CC4CCC3C4)CCO2)c1 (stereo partly drawn) : reported EC50 = 410

Reported EC50 for O=C(N[C@H]1C[C@@H]2CC[C@H]1C2)N[C@H]1C[C@H](c2cccc(Cl)c2)C1 (racemic) was 830

====

# assayed.system: human Kv7.2 (Homo sapiens)
# procedure.text: activation (potentiation) of Kv7.2 current, SyncroPatch 384 electrophysiology in CHO cells stably expressing human Kv7.2
# condition: human Kv7.2 in CHO cells; in presence of 5.6 μM zinc pyrithione; % activation relative to 30 μM ML-213
attribute.measured: pEC50
Just the number, please; pEC50 means minus log10 of the concentration in mol/L.

O=C(NC[C@@]1(c2cccc(Cl)c2)OCC1(F)F)[C@H]1C[C@@H]1c1ccccc1 (stereo in doubt): 7.30
CC(C#N)(CNC(=O)[C@H]1C[C@@H]1c1ccccc1)c1cccc(Cl)c1 (mixture of isomers): 5.88
CCc1cc(C2(CNC(=O)[C@H]3C[C@@H]3c3ccccc3)CCO2)ccn1 (stereo partly shown): 5.60
CO[C@@](C)(CNC(=O)[C@H]1C[C@@H]1c1cccnc1)c1cccc(Cl)c1 (mixture of isomers): 5.02
N#Cc1cccc([C@]2(CNC(=O)C(F)C3CC4CCC3C4)CCO2)c1 (stereo partly shown): 5.23

Measured pEC50 of O=C(NCC1(c2ccnc(OC(F)F)c2)CCO1)[C@H]1CC12CCCCC2 (stereo in doubt) : 6.41

Sample O=C(NCC1(c2cccc(Cl)c2)CCO1)Nc1cccc(Cl)c1 (stereo not shown) ; pEC50 observed: 6.09

In plain terms, O=C(NC[C@]1(c2cccc(Cl)c2)OCC1(F)F)[C@H]1C[C@@H]1c1ccccc1 (stereo in doubt) has a documented pEC50 of 6.20

# pEC50 of CO[C@@](C)(CNC(=O)[C@H]1C[C@H]1C1CCCC1)c1cccc(Cl)c1 (mixture of isomers) = 6.30

Recorded pEC50 (molecule N#Cc1cccc(C2(CNC(=O)CC3CCCCC3)CCC(=O)O2)c1 (stereo not shown) ): 6.02

Short answer for COC(C)(CNC(=O)N[C@H]1CC2CCC1C2)c1cccc(Cl)c1 (mixture of isomers) : pEC50 was 6.77

====

# assayed.system: human Kv7.2 (Homo sapiens)
# procedure.text: activation (potentiation) of Kv7.2 current, SyncroPatch 384 electrophysiology in CHO cells stably expressing human Kv7.2
# condition: human Kv7.2 in CHO cells; in presence of 5.6 μM zinc pyrithione; % activation relative to 30 μM ML-213
Below: a set of entries, each annotated with reported EC50.
Only the number, expressed in nM, is required.

Here's what some known entries look like.
CO[C@@](C)(CNC(=O)[C@@H]1C[C@H]1C1CC1)c1cccc(Cl)c1 (mixture of isomers): 1120
COC(C)(CNC(=O)NCc1cccc(F)c1)c1cccc(Cl)c1 (stereo not drawn): 760

Let's switch to this compound now.
GET /values?item= O=C(NCC1(c2cccc(OC(F)F)n2)CCO1)[C@H]1C[C@@H]1C(F)(F)F (stereo partly drawn) &system= human Kv7.2 (Homo sapiens) returns EC50: 680

====

# Lookup of reported EC50 keyed by entry
# assayed.system: human Kv7.2 (Homo sapiens)
# procedure.text: activation (potentiation) of Kv7.2 current, SyncroPatch 384 electrophysiology in CHO cells stably expressing human Kv7.2
# condition: human Kv7.2 in CHO cells; in presence of 5.6 μM zinc pyrithione; % activation relative to 30 μM ML-213
Number only, in nM; omit the unit.

Solved entries (count: 5):
CO[C@@](C)(CNC(=O)C1CC12CCOCC2)c1cccc(Cl)c1 (some centres unmarked) [Example 84]: 130
COC(C)(CNC(=O)C1CC1c1ccc(Cl)cc1)c1cccc(Cl)c1 (centres unmarked) [Example 44]: 900
N#Cc1cccc([C@]2(CNC(=O)[C@H]3C[C@@H]3c3ccccc3)CCO2)c1 [Example 49]: 40
O=C(NCC(OCC(F)(F)F)c1cccc(Cl)c1)NC1C[C@H]2CC[C@@H]1C2 (mixture of isomers) [Example 45]: 790
O=C(CC1CCC(F)(F)CC1)NCC1(c2cccc(Cl)c2)CCO1 (centres unmarked) [Example 65]: 1920

The record that follows has no EC50 shown yet.
Reported EC50 of N#Cc1cccc([C@]2(CNC(=O)[C@H]3C[C@@H]3C3CC(F)(F)C3)CCO2)c1 (mixture of isomers) [Example 127] : 1040

====

# assayed.system: human Kv7.2 (Homo sapiens)
# procedure.text: activation (potentiation) of Kv7.2 current, SyncroPatch 384 electrophysiology in CHO cells stably expressing human Kv7.2
# condition: human Kv7.2 in CHO cells; in presence of 5.6 μM zinc pyrithione; % activation relative to 30 μM ML-213
Could you mark each record MET if its EC50 falls strictly under 1000 nM, and NOT MET if it equals or exceeds it?

Observe how each entry below is paired with its result.
CC(C)OC(CNC(=O)NC1CCCC1)c1cccc(Br)c1 (centres unmarked): NOT MET
O=C(NCC1(c2cccc(OC(F)F)n2)CCO1)C1CC12CCCCC2 (centres unmarked): MET
COC(CNC(=O)Nc1cccc(C)c1)c1cccc(Cl)c1 (centres unmarked): NOT MET
COc1cccc(NC(=O)NCC(C)(OC)c2cccc(Cl)c2)c1 (centres unmarked): NOT MET
O=C(NCC1(c2cccc(Cl)c2)CCO1)C1CCCCC1 (centres unmarked): NOT MET
COC(C)(CNC(=O)NCCCc1ccccc1)c1cccc(Cl)c1 (centres unmarked): NOT MET
N#Cc1cccc([C@@]2(CNC(=O)CC3CC4CCC3C4)CCO2)c1 (some centres unmarked): NOT MET
COc1cccc(NC(=O)NC[C@](C)(OC)c2cccc(Cl)c2)c1: NOT MET

Qu. In plain terms, does [2H]C([2H])([2H])OC(C)(CNC(=O)NC1CCCC1)c1cccc(Cl)c1 (centres unmarked) come in under 1000 nM for EC50?
Ans. NOT MET

Qu. Dear colleague, could you confirm whether EC50 of N#Cc1cccc([C@]2(CNC(=O)C3CCCC34CCC4)CCO2)c1 (some centres unmarked) falls below 1000 nM? Thanks.
Ans. MET

Qu. Given the entry N#Cc1cccc(C2(CNC(=O)[C@H]3C[C@@H]3c3ccccc3)COC2)c1 , would its reported EC50 be below 1000 nM?
Ans. NOT MET
